# System: HL-60
# EXPERIMENT: NCI tumour cell line growth inhibition, 48 h
The source made the active and inactive calls. Cut-off read from the data, not from the text of the source: active = GI50 up to about 1.1 µM and inactive = higher.
PROPERTY LABEL: GI50

Example entries and their recorded answers appear below.
MOLECULE: O=c1cnn(C/C=C\CO)c(=O)[nH]1
GI50: > 100 µM (inactive)
--
MOLECULE: CCOC(=O)CCC(NC(=O)c1ccc(NCc2ccc3nc(-c4ccccc4)c(Cl)nc3c2)cc1)C(=O)OCC (configuration not stated)
GI50: 17.4 µM (inactive)
--
MOLECULE: CC(C)(C)c1cc(C(P(=O)(O)O)P(=O)(O)O)cc(C(C)(C)C)c1O
GI50: > 100 µM (inactive)
--
MOLECULE: C=C(C)OCOCCOC
GI50: > 100 µM (inactive)
--
MOLECULE: COc1cc(OC)c(-c2cc(=O)c3c(OC)c(OC)c(OC)c(OC)c3o2)cc1OC
GI50: 13.6 µM (inactive)
--
MOLECULE: NNC(=S)N/N=C(\C(=O)Nc1cccc(O)c1)C1C(=O)NC(=S)NC1=O
GI50: > 100 µM (inactive)
--
MOLECULE: O=C(O)CNC(=O)c1cccc2c(=O)c3ccccc3[nH]c12
GI50: > 100 µM (inactive)
--
MOLECULE: O=C(c1cc(Cl)cc(Cl)c1)N1CCN(C(=O)c2cc(Cl)cc(Cl)c2)C1=S
GI50: 3.31 µM (inactive)
--
MOLECULE: C[C@H]1COC(c2ccccn2)=N1
GI50: > 100 µM (inactive)
--
MOLECULE: NC(=O)c1oc([N+](=O)[O-])c(-c2ccccc2)c1-c1ccccc1
GI50: 25.1 µM (inactive)

Briefly, GI50 measured for CC(=O)C(=CNc1c(C)n(C)n(-c2ccccc2)c1=O)C(C)=O : > 100 µM (inactive)

Briefly, GI50 measured for C=C(Cl)C(Br)(CCl)CCC(Br)C(C)(C)Cl (configuration not stated) : 2.43 µM (inactive)

Briefly, GI50 measured for CCOc1ccc2c(c1)[n+]([O-])c(-c1nc3ccccc3s1)c(N)[n+]2[O-] : 31.2 µM (inactive)
